tryptophanase of Bacteroides thetaiotamicron (Bacteroides thetaiotaomicron): reported IC50 for various compounds.
Sequence (Q8A7N2 entry or part of it, change not shown): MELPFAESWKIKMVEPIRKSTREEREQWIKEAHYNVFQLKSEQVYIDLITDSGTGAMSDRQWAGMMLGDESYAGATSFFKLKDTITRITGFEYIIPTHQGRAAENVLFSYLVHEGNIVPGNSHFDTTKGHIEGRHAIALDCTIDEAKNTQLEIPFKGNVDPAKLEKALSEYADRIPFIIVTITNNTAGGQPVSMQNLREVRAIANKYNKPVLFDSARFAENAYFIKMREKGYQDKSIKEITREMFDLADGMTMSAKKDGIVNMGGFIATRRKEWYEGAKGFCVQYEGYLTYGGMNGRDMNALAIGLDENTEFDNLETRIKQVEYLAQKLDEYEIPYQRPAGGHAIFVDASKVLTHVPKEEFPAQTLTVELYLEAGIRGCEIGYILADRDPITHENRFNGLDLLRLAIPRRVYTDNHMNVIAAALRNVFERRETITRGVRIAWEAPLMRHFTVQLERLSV
Readout: IC50 (µM)

N#Cc1ccc(NC(=O)NC(C(=O)O)(C2CC2)C2CC2)cc1 [Example 35]	10.9
CCC(CC)(NC(=O)Nc1ccc(C(F)(F)F)cc1)C(=O)O [Example 20]	11.6

[1] CC[C@@](C)(NC(=O)Nc1ccc(OC(F)F)c(F)c1)C(=O)O [Example 15]
[2] CC[C@@](NC(=O)Nc1cccc(C#N)c1)(C(=O)O)C1CC1 [(−) Isomer Compound of Example 33]
-- ask Select one. Lower IC50: 1 or 2 Indicate your choice by writing its label.
-- reply 2
